Assay: Trans-enterocyte transport of CA in Caco-2 cell monolayer
Format: in vitro ADME, human
Details: human, Caco-2, CA 50 μM, 1.0 h, CA alone; read-out: Papp AP to BL
measured attribute: Papp A→B at 1 h, 50 μM
Provide a numeric answer, followed by its unit.

The compound listed as CC(C)c1cc2c(c(O)c1O)[C@@]1(C(=O)O)CCCC(C)(C)[C@@H]1CC2 has a reported Papp A→B at 1 h, 50 μM of 0.36 ×10⁻⁶ cm/s

---

Assay: Trans-enterocyte transport of CA in Caco-2 cell monolayer
Assay type: in vitro ADME, human
Settings: human, Caco-2, CA 100 μM, 1.0 h, CA alone; read-out: Papp AP to BL
measured attribute: Papp A→B at 1 h, 100 μM (×10⁻⁶ cm/s)
Numbers only, in ×10⁻⁶ cm/s.

The compound listed as CC(C)c1cc2c(c(O)c1O)[C@@]1(C(=O)O)CCCC(C)(C)[C@@H]1CC2 [CA, Carnosic acid] has a reported Papp A→B at 1 h, 100 μM of 1.32

Where do the numbers come from? From paper PMC8698657.
